test: Cytotoxicity against human HepG2 cells assessed as cell viability at 120 uM after 24 hrs by MTT assay; assay type: cell-based; conditions: read-out: Activity

STRUCTURE SMILES: c1ccc2c(CC(Cn3cc(CN4CCCNCCCNCCC4)nn3)Cn3cc(CN4CCCNCCCNCCC4)nn3)cccc2c1
viability at 24 h, 120 µM (%): 64
